- Test protocol: PET hydrolysis, aromatic products released after 48 h (umol product/mg enzyme); higher = more PET depolymerization activity
- Condition: substrate: cryPow; 40 °C; pH 5.5
Quantity kind: PET hydrolysis

// solved cases for PET hydrolysis follow
- Macromolecule sequence: "GTTASATTVSGTQAAAAQEYRRGPDPTAQSVEAATGPFAIQQTSVPAGNGFGGGTIYYPTDTSQGTFGAIAISPGWTEDQSAIAWLGPKLASNGFVVMTINNNNAFLDFPDARGTQLLAALDSLTGQSPVAGRIDKNRLAVAGHSMGGGGALRAAATRPEIQAAIPLTPWHLNQDWSSVRVPTLIVGGETDIIASVGAHSEPFYESLTNAPERAYLEMEGQGHFVTNSANPTVGRYVLSWLKRYVDNDTRYEQFLCPAPAPSSVISEYRDSCPGS [DP018]"
  PET hydrolysis: "< 3"
- Macromolecule sequence: "AQTSQVVTANPHQRGPDPTPETVRAPQGTFAFSTYSVPASVTGFGQGTIYYPDDTTQGTFAGVAISPGYTGPEASVAWLGPRLASRGFVVITITTNSRYDQPTSRGKQLLAALDYLTKQSPTEVRQRLDATRLGVMGHSMGGGGALYAAYKRPSLKAAVPLAPWNLIKNWSGIRVPTLVVAGTADKTASAGAHSLPFYSSMTGARERAFADVTGADHLTFVREDPVIGALAVSWLKRFLDDDTRYAPFITEPVGLSRFLCSCPYAG [DP007]"
  PET hydrolysis: "< 3"

Turning now to a further sequence:
Exercise: I am curious: what PET hydrolysis value has been reported for DEIGQAPTSSNITGNGSFSVATYNISSLVSGFGGGVAYYPTTSGRYPVIAVSPGFTARWSSISWIGPRLASWGFVVVGIETNSIYDQPGSRGSQLLAALNWAVNSAPSSVRDRVDGSRRGVAGHSMGGGGTLEALAADTTGLVKAGVPIAPWNTDTTWGGLNEAVQIVGGESDTIAPVSSHSIPFYSTLGGPKSYVELNGASHFFPQTSNSTLSRALVSWFKRYLNNDARFTPFTCGYSGLSISDFRSNNC [ESM144] ?
Key: < 3

----------
- Test protocol: purified protein yield per well (BCA); higher = higher soluble expression
Quantity kind: purified protein yield per well (µg)
Numbers only; they are read as µg.

- Macromolecule sequence: "DPPTHAKGVKPGPSELAAPSASDLAADGPHAVTTTAISGSVTPGFGAATIYAPASGSGYGGVAISPGYMSTQSAVSWLGPRLASHGFVVITFDTTTIWDNPDSRGVQLLAALDYLTGSSPARGQVDASRLAVMGHSMGGGGSLAAAKSRPSIDAAIPLTPWHTDKTWPEVSTPTLIVGAENDGIAPVASHAEPFYESLATSTDRAYLELNAATHSAPNSENAQISTYSLAWLKRFVDGDTSVDPILCPGPAASSTVEEYRSSCPF [DP019]"
  Quantity kind: "purified protein yield per well"
  Value measured: 28

Turning now to a further sequence:
Exercise: I am curious: what purified protein yield per well value has been reported for DQIGQAPTASNITGNGSFATTSASISSTVSGFGGGRVYYPTAAGTYPVIAISPGFTATWSSLAWIGPRLSSWGFVVVGIETNSIYDQPASRGNQLLAALNWAVNSSPTAVRSHVDGSRRGVAGHSMGGGGTLEALAADTTGLVKAGVPLAPWNTDKTWNNVSEPVLIVGGQADTVAPVASHSIPFYNTLAGPKTYVELTGQSHFFPQTTNATASRALVAWFKRWVSQDSRFTPFTCGFSGVAVSDFRSNAC [ESM082] ?
Key: 151

----------
- Test protocol: PET hydrolysis, aromatic products released after 48 h (umol product/mg enzyme); higher = more PET depolymerization activity
- Condition: substrate: cryPow; 40 °C; pH 5.5
Quantity kind: PET hydrolysis

// solved cases for PET hydrolysis follow
- Macromolecule sequence: "ETEYRKGPDPTEATVTAALGPFATASVSVPSSVAGFGGGVIHYPTDTSQGTFGAVAVAPGFLGSSANYAWMGPRLASQGFVVFLINTDSRLDQPPSRGDQLLAALDYLVTSSSVRARIDASRLAVAGHSMGGGGTLEAATDRPGLQAAIPLQPWHTVKSWPNVQVPTLIIGAENDTTAPVASHAEPFYVSIPAAAEKAYLELNNAEHRVGTAGDTTQAKFMIVWLKRYVDNDTRYEQFICPPPPAPSSEIQEYRNTCPG [TEP171]"
  Quantity kind: "PET hydrolysis"
  Value measured: "< 3"
- Macromolecule sequence: "VPVVPAQQENPYQRGPDPTPESVEAPRGSFAIEKATIARGSVQGFGGGTIYYPTDTAEGTFGAVAISPGFTESQSAISWYGERLATQGFVVFTIDTNGGLDQPDSRADQLLAALDFLTGSSEVKDRIDASRLGVLGHSMGGGGSLSAAKKRPALQAAVPLAPWHTNSNWSDVTVPTLIVGAENDAVAPVGMHAEPFYAGLTKAPEKAYLELKGADHFVTNSPNTVIAKSTLSWLKRFIDDDTRYDQFLCPPPKPDNDISEYRDTCPN [DP051]"
  Quantity kind: "PET hydrolysis"
  Value measured: "< 3"

Turning now to a further sequence:
Exercise: I am curious: what PET hydrolysis value has been reported for GETAQTTDVSAQSQFQRGPNPTVSSIEARTGHYRTSTTRVSSFASGFGGGTIYYPTTTSDGTFGGVAVAPGYTASSSTMDWLGPRIASQGFVVFVIDTNTRLDQPSSRGRQLLAALDYLTERSSERHRVDSNRLAVMGHSMGGGGALEATISRPSLKASIPLTPWNLTKNWSRVTTPTLIVGAENDSVASVRSHSIPFYTSLSSSTDRMYVELDGASHFAPNVSNTTIAKYSISWLKRFVDDDTRYDQFLCPLPNERAISDIRGNCPR [DP090] ?
Key: < 3

----------
Reported PET hydrolysis by item:
- Test protocol: PET hydrolysis, aromatic products released after 48 h (umol product/mg enzyme); higher = more PET depolymerization activity
- Condition: substrate: aFilm; 60 °C; pH 6.5
Would you mind answering with just the numeric figure?

- Macromolecule sequence: "QYQKGPDPTVSALERTGSFATRTTTVSRTSASGFGGGTIYYPTASGSYGAIAISPGFTAYQSSISWMGTRLASHGFVVITIDTITTSDQPDSRGRQLKAALDKVVSLSRSSSSPIYNKVDTTRLAVAGHSMGGGGTLAAARDYPSLKAAVPLAPWHTTKSWSRVTVPTLIIGGSTDTIASVGLHSIPFYTSLPSSTNKAYMELSGEGHFFPQTSSNYPLVGRYMISWFKRFVDGDSRYSPFLCGAQHQADLGLFSDISDYRENCPY [ESM169]"
  Value measured: 6.5

Turning now to a further sequence:
Exercise: I am curious: what PET hydrolysis value has been reported for NPYERGPDPTTASIEASRGSFATSTVTVSRLAVSGFGGGTIYYPTTTTAGTFGAISIAPGFTATQSSMAWLGPRLASQGFVVFTIDTITTSDQPDSRGRQLLASLDYLTQQSSVRSRIDSSRLGVVGHSMGGGGTLEAARSRPSLQAAVPLTGWNLTKNWSTLRVPTLVVGAQSDTIAPVASHSIPFYTSLPSTLDRAYLELRGASHFAPNTSNTTIAKYTLSWLKRFIDNDTRYEQFLCPIPSSSLSISDYRGNCPHNG [ESM167] ?
Key: 2

----------
- Test protocol: PET hydrolysis, aromatic products released after 48 h (umol product/mg enzyme); higher = more PET depolymerization activity
- Condition: substrate: cryPow; 60 °C; pH 6.5
Reported PET hydrolysis by item:

// solved cases for PET hydrolysis follow
- Macromolecule sequence: "ANPYERGPDPTLASVEATSGTFAYASLSVSSGNGFGGGTIYYPTSTTDGTFAGIVTCPGFTNSGSSMAWFGKVLASQGFVTLVMNPKSNLDFPDARATQMLAALDWLTNSSSVKTRIDATRLGVLGQSMGGGATLKASKTRPSLKASFATAPYNSDKDWSTNTVPQFLFGMQNDTTAAVTNHALKFYNSLPATTPKIYAELRGAGHSTATSPNTSIRRYAVSFMKRNLDNDTRYSQFLCPGPTITSSSPLSAFMSNCLF [DP080]"
  PET hydrolysis: "< 3"
- Macromolecule sequence: "GQAPTTAAQVRASAFAKGPDPTEQTIKAQRGPFQIKQLSVAAQSGRGFNRGTIYYPTDTGQGTYGAIAVIPGFLEPEFITSWYGPTLASYGFVVMTLEPFAITDFPDPRSNQLLAAVDWLAADSPVKAQVDPNRLAVMGHSMGGGGALLAASKRPSLKAAVPLAPWNLYADFAGVTVPTLVIGADNDFIAPVGMHADPMYASIKASPNEGYLKLKNADHFTVNSYSATLTKFTVSWMKRYVDEDTRYTQFLCPAPQPDPSFASFQMTCPS [TEP173]"
  PET hydrolysis: "< 3"

Turning now to a further sequence:
Exercise: I am curious: what PET hydrolysis value has been reported for AANPYERGPDPTDAILEAARGPFETSRTEVPALSVTGFGGGTIYYPATTSAGTFGGVAVAPGYTADRTSLAWLAERLASHGFVVFNIDTLTRLDQPDSRGRQLLAALDYLTQRSSVRGRLDAGRLGVMGHSMGGGGTLEAARDRPSLQAAVPLTPWDLTKIWSGVRVPTMIVGAEADTIAPVASHAEPFYQSLPSSPGKAYLELNNATHFAPNVPDTTIGKYVVAWMKRFVDDDTRYTRFLCPGPSGGLTVEEYRSTCPFS [TEP194] ?
Key: 3.5
